Assay: melting temperature; fluorescence melt of hairpins on a sequencing array, two-state fit, raised by 9.35 °C to match UV melts
Settings: sodium 0.088 M
Attribute: Tm
Kindly provide the numeric value in °C only, without the unit symbol.

> print(dat)
                         sequence.data  observed.property  value.observed
1  GCTGTCGAAAGACCAGC ((((((....))).)))                 Tm            51.3

Reported Tm of GCGAGGTTTCGC ((((....)))) : 49.4

Reported Tm of GCCCCCGAAAGGGACGGC ((((((....)))..))) : 50.9
